The values you see were collected from ChEMBL document CHEMBL1140044.

Test: Selectivity index, ratio of CC50 for human CEM cells to EC50 for HIV1 3B
Assay type: toxicity, cell-based, CCRF-CEM
Details: read-out: Ratio CC50/EC50
outcome_measure: selectivity ratio
Numbers only.

INSERT INTO assay_data (given_smiles, numeric_readout) VALUES
  ('Cn1cc(C(=O)O)c(=O)c2ccc(N3CCN(c4cccc(C(F)(F)F)c4)CC3)cc21', 9),
  ('Nc1cc2c(=O)c(C(=O)O)c[nH]c2cc1N1CCN(c2ccccn2)CC1', 93),
  ('Nc1cc2c(=O)c(C(=O)O)c[nH]c2cc1N1CCN(c2nc3ccccc3o2)CC1', 11),
  ('Cn1cc(C(=O)O)c(=O)c2ccc(N3CCN(c4nc5ccccc5s4)CC3)cc21', 281),
  ('Nc1cc2c(=O)c(C(=O)O)c[nH]c2cc1N1CCN(c2nccs2)CC1', 23);

# context switch: different compound, same selectivity ratio
## Task Consider the compound shown here: `Cn1cc(C(=O)O)c(=O)c2cc(N)c(N3CCN(c4ccc5ccccc5n4)CC3)cc21` What is its recorded selectivity ratio?
## Result 115
